The values you see were collected from patent US20030232420A1.

What Kd was measured for each of the following?
# measurement.target: T1, Full-length murine RIIα (murine, UniProt P12367 2-401)
# T1 construct: mature; given as full-length
# T1 sequence (P12367 2-401): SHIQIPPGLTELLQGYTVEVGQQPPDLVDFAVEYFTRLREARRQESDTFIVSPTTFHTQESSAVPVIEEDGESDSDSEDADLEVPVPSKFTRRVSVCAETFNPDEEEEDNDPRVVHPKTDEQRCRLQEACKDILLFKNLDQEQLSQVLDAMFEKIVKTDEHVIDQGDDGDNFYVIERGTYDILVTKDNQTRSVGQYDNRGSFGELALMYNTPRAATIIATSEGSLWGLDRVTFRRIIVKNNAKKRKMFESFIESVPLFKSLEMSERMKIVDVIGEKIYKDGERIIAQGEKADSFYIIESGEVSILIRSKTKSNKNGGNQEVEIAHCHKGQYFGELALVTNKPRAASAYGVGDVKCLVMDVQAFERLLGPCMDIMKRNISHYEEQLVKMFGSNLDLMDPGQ
# test.description: fluorescence anisotropy, labeled peptide
Ends that are not written are not given here.
One number for each entry, in nM.

Some entries whose results are on file:
* FEELAWKIAKMIISDVFQQC(tetramethylrhodamine‑5‑maleimide)-NH2 [PV-49 (SEQ ID NO:107) FEELAWKIAKMIISDVFQQC, rhodamine-labeled] | 2.5
* FEELAWKIAKMIWSDVMQQC(tetramethylrhodamine‑5‑maleimide)-NH2 [PV-37 (SEQ ID NO:104) FEELAWKIAKMIWSDVMQQC, rhodamine-labeled] | 150
* Ac-DLAWKIAKMIVSDVMQQC(tetramethylrhodamine‑5‑maleimide)-NH2 [SEQ ID NO:112 peptide Ac-DLAWKIAKMIVSDVMQQC, rhodamine-labeled] | 107
* QEEFAWKIAKMIISDVFQQC(tetramethylrhodamine‑5‑maleimide)-NH2 [PV-48 (SEQ ID NO:106) QEEFAWKIAKMIISDVFQQC, rhodamine-labeled] | 124
* QEEFAWKIAKMIVSDVFQQC(tetramethylrhodamine‑5‑maleimide)-NH2 [PV-47 (SEQ ID NO:105) QEEFAWKIAKMIVSDVFQQC, rhodamine-labeled] | 89

Now for another entry.
What measured Kd goes with VQGNTDEAQEELAWKIAKMIWSDVMQQC(tetramethylrhodamine‑5‑maleimide)-NH2 (also called single mutant V21W) [SEQ ID NO:111 peptide (. . . QEELAWKIAKMIWSDVMQQC), rhodamine-labeled] ? 83
